src = patent US20060223879A1

Can you tell me RE for the items I'm about to list?
- Tested System: FXR (Homo sapiens)
- Construct: using a full length FXR on a natural response element; expressed in transfected cells
- Sequence (Q96RI1 whole entry, species assumed): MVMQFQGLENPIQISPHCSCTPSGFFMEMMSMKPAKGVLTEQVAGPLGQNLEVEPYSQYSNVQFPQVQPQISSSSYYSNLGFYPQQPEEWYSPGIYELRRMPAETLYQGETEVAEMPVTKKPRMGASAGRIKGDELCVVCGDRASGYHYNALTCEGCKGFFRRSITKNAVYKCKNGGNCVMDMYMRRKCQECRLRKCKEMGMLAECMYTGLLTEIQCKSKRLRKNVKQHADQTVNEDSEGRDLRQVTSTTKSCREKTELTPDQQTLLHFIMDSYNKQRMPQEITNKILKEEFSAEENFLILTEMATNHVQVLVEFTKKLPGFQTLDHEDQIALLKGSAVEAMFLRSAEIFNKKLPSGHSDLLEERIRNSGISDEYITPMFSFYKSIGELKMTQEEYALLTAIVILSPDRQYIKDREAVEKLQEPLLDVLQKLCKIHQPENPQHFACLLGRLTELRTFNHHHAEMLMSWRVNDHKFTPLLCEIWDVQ
- Method Notes: cell-based transcription assay, FXR responsive promoter linked to a luciferase reporter
- Design: scale not given here
- Test Conditions: Tables 1-15; RE not defined in the source
Numbers only.

Examples from the recorded data:
COC(=O)/C=C/c1cccc(N(Cc2ccc(/C=C/C(=O)OC(C)(C)C)cc2)C(=O)NC(C)C)c1 [Compound 145] : 1.96
COC(=O)/C=C/c1cccc(N(Cc2ccc(/C=C/C(=O)OC(C)(C)C)cc2)C(=O)C2CCCCC2)c1 [Compound 105] : 2.12

Turning now to a further molecule:
Q) RE lookup needed for COC(=O)C=Cc1cccc(N(Cc2ccc(C=CC(=O)OC(C)(C)C)cc2OS(C)(=O)=O)C(=O)C2CCCCC2)c1 [Compound 166] , thanks.
A) 0.16
